Entries and their TGI
Tested on: HOP-92 NSCLC
Procedure text: NCI tumour cell line growth inhibition, 48 h
Assay metric: TGI

[[record]]
molecule = "COc1cccc([C@@H]2C/C(=N\\NC(=O)C(=O)N[C@@H](C)c3ccccc3)c3cc4c(cc3N2)OCO4)c1"
result = "> 100 µM"

[[record]]
molecule = "CC1(C)[C@H]2CC[C@](C)(C2)[C@]1(S)Cc1ccccn1"
result = "> 100 µM"

[[record]]
molecule = "C/C(=N\\N)C(CN1CCCCC1)C(c1ccccc1)c1c(O)c2ccccc2oc1=O (centres undefined)"
result = "> 100 µM"

[[record]]
molecule = "C=CCNC(=O)ON1C(=O)CCC1=O"
result = "> 100 µM"


###

Test system: SF-295 CNS
Procedure text: NCI tumour cell line growth inhibition, 48 h
Entries and their TGI
Assay metric: TGI

[[record]]
molecule = "CN(C)C(=O)C(NCCO)c1ccccc1 (centres undefined)"
result = "> 100 µM"

[[record]]
molecule = "O=C1CC(C(O)C(O)C(O)CO)CC(=O)N1 (centres undefined)"
result = "> 100 µM"

[[record]]
molecule = "C/C(=N\\N)C(CN1CCCCC1)C(c1ccccc1)c1c(O)c2ccccc2oc1=O (centres undefined)"
result = "> 100 µM"

[[record]]
molecule = "C=CCNC(=O)ON1C(=O)CCC1=O"
result = "> 100 µM"

[[record]]
molecule = "Cc1cc(N(CCC#N)CCC#N)ccc1/C=C(\\NC(=O)/C=C/c1ccccc1)NC(=O)Nc1ccccc1C"
result = "> 100 µM"

[[record]]
molecule = "Cn1c(=O)c2c(nc(N3CCOCC3)n2CCCNCC(O)c2ccc(O)c(O)c2)n(C)c1=O (centres undefined)"
result = "> 100 µM"

[[record]]
molecule = "O=C(N/C(=C\\NC1=NCCS1)C(=O)N1CSC[C@@H]1C(=O)O)c1ccccc1"
result = "> 100 µM"

[[record]]
molecule = "c1ccc(C2(c3ccccc3)S/C(=C3/SC(c4ccccc4)(c4ccccc4)c4ccccc43)c3ccccc32)cc1"
result = "> 100 µM"

[[record]]
molecule = "COc1cccc([C@@H]2C/C(=N\\NC(=O)C(=O)N[C@@H](C)c3ccccc3)c3cc4c(cc3N2)OCO4)c1"
result = "> 100 µM"


###

Entries and their TGI
System: SW-620 colon
Procedure text: NCI tumour cell line growth inhibition, 48 h
Assay metric: TGI

[[record]]
compound = "CC(=O)O[C@H]1CC[C@@]2(C)C(=CC[C@@H]3C2CC[C@]2(C)C(=O)NC(=O)CC32)C1 (stereo partly specified)"
result = "> 100 µM"

[[record]]
compound = "OCC(O)C(O)C(O)c1nn[nH]n1 (stereo unspecified)"
result = "> 100 µM"

[[record]]
compound = "CC[C@]1(Cc2ccc(OC)c(OC)c2)C=[N+]([O-])O[C@H](OC2CCCCC2c2ccccc2)[C@@H]1OC(C)=O (stereo partly specified)"
result = "> 100 µM"

[[record]]
compound = "O=C(/C=C/c1ccccc1)Nc1ncc(Cc2ccccc2)s1"
result = "> 100 µM"

[[record]]
compound = "Clc1ccc(C2ON=C(c3ccccc3)N2C23CC4CC(CC(C4)C2)C3)cc1Cl (stereo unspecified)"
result = "> 10 µM"

[[record]]
compound = "Clc1cc2nc[nH]c2cc1Cl"
result = "> 100 µM"

[[record]]
compound = "CCCCCCN(CCCCCC)C1=CC(=O)C(=O)c2ccccc21"
result = "27.3 µM"

[[record]]
compound = "C/C(=N\\NC(=O)c1cccc(S(=O)(=O)N2CCN(C)CC2)c1)c1cc(Cl)ccc1O"
result = "> 94.9 µM"

[[record]]
compound = "O=c1[nH]c(=S)n(-c2cccc3ccccc23)c(O)c1/C=C1\\C=Nc2ccccc21"
result = "6.73 µM"

[[record]]
compound = "CC1(C)CCc2cc3c(cc2O1)OC(C)(C)CC3=O"
result = "> 100 µM"

[[record]]
compound = "CCCCCCCCCCCCCCCCC(=O)NCC(=O)NCC(=O)NC(Cc1ccccc1)C(=O)Oc1ccc([N+](=O)[O-])cc1 (stereo unspecified)"
result = "37.2 µM"

[[record]]
compound = "O=P1(N(CCCl)CCCl)Oc2c(Cl)cc(Cl)c(Cl)c2Cc2c(Cl)c(Cl)cc(Cl)c2O1"
result = "> 100 µM"

[[record]]
compound = "CCN1C(=O)/C(=C\\c2coc3ccccc3c2=O)SC1=S"
result = "> 100 µM"

[[record]]
compound = "O=C(O)c1[nH]c(=O)[nH]c(=O)c1CN1CCCCC1"
result = "> 100 µM"

[[record]]
compound = "C=CC(C)CCC(C/C=C(\\C)CCCC(C)C)C(=C)CCCC(C)C (stereo unspecified)"
result = "> 100 µM"

[[record]]
compound = "O=S(=O)(Nc1nc2ccccc2nc1Nc1cccc2ccccc12)c1ccccc1"
result = "> 100 µM"

[[record]]
compound = "OC1C2CCC3C2CC(C(O)(c2ccccc2)c2ccccc2)C13 (stereo unspecified)"
result = "> 100 µM"

[[record]]
compound = "Cc1cc(NCCCNc2ccnc3cc(Cl)ccc23)nc(Nc2ccc(C(=O)N3CCCCC3)cc2)n1"
result = "4.52 µM"

[[record]]
compound = "C[C@]12CC/C(=N\\O)C[C@@H]1CC[C@@H]1[C@@H]2CC[C@]2(C)/C(=N/O)CC[C@@H]12"
result = "> 100 µM"

[[record]]
compound = "Nc1nc(N)c2c(CCc3ccc(C(=O)N[C@@H](CCC(=O)O)C(=O)O)cc3)ccnc2n1"
result = "> 100 µM"

[[record]]
compound = "Nc1cc(N2CCOCC2)nc(=O)n1-c1ccccc1"
result = "> 100 µM"

[[record]]
compound = "CCCCN1C(=O)C2c3[nH]c4ccccc4c3C3CCCCC3C2C1=O (mixture of isomers)"
result = "> 100 µM"

[[record]]
compound = "CC1(C)CCCC2(C)C3=C(CCC12)C(=O)OC3 (stereo unspecified)"
result = "> 100 µM"

[[record]]
compound = "CCC(C#N)NCc1ccc(CNC(C#N)CC)cc1 (stereo unspecified)"
result = "> 100 µM"

[[record]]
compound = "[O-]c1ccccc1[C-]=Nc1ccccc1O.[O-]c1ccccc1[C-]=Nc1ccccc1O.[O]=[U]=[O]"
result = "74.5 µM"

[[record]]
compound = "N#CC1=C(c2ccccc2)NN(Cc2ccccc2)C(c2ccc(Cl)cc2)CC1=O (stereo unspecified)"
result = "54.8 µM"


###

Tested on: U251 CNS
Procedure text: NCI tumour cell line growth inhibition, 48 h
Entries and their TGI
Assay metric: TGI

[[record]]
compound = "CC(=O)NC1C(O)C(O)C(CO)OC1n1nc(SCc2ccccc2)c(=O)[nH]c1=O (stereo unspecified)"
assay_metric = "TGI"
result = "> 100 µM"

[[record]]
compound = "C/C(=N\\NC(=O)C[n+]1ccccc1)c1sc(-c2nc(C)c(/C(C)=N/NC(=O)C[n+]3ccccc3)s2)nc1C"
assay_metric = "TGI"
result = "> 100 µM"

[[record]]
compound = "N=C1/C(=C/c2ccco2)C(=O)N=C2SC=NN12"
assay_metric = "TGI"
result = "> 100 µM"

[[record]]
compound = "NC(N)=NS(=O)(=O)c1ccc(NC(=O)c2cccn3c(=O)c4ccccc4nc23)cc1"
assay_metric = "TGI"
result = "> 100 µM"

[[record]]
compound = "COc1cccc([C@@H]2C/C(=N\\NC(=O)C(=O)N[C@@H](C)c3ccccc3)c3cc4c(cc3N2)OCO4)c1"
assay_metric = "TGI"
result = "> 100 µM"

[[record]]
compound = "Cn1c(=O)c2c(nc(N3CCOCC3)n2CCCNCC(O)c2ccc(O)c(O)c2)n(C)c1=O (stereo unspecified)"
assay_metric = "TGI"
result = "> 100 µM"


###

Test system: 786-0 renal
Procedure text: NCI tumour cell line growth inhibition, 48 h
Assay metric: TGI (µM)

[[record]]
compound = "COc1ccccc1CN=C1NC(=O)/C(=C/c2ccc3ncccc3c2)S1"
assay_metric = "TGI"
limit_qualifier = ">"
numeric_readout = 25

[[record]]
compound = "SCc1ccc(-c2ccc(CS)cc2)cc1"
assay_metric = "TGI"
limit_qualifier = "="
numeric_readout = 59.5

[[record]]
compound = "c1cc2c(cc1NC1=NCCO1)CCCC2"
assay_metric = "TGI"
limit_qualifier = "="
numeric_readout = 16.7

[[record]]
compound = "CSC1=NC(=O)CCN1C1OCC(OC(C)=O)C(OC(C)=O)C1OC(C)=O (stereo not given)"
assay_metric = "TGI"
limit_qualifier = ">"
numeric_readout = 31.6

[[record]]
compound = "CC(=O)Oc1c(C)cc2c(c1C)C(C)(C)CN2C(=O)C(C)(C)C"
assay_metric = "TGI"
limit_qualifier = ">"
numeric_readout = 100


###

Test system: UACC-62 melanoma
Procedure text: NCI tumour cell line growth inhibition, 48 h
Assay metric: TGI

[[record]]
molecule = "N#Cc1c(N)n(C2OC(CO)C(O)C2O)c2ncnc(N)c12 (configuration not stated)"
result = "0.0941 µM"

[[record]]
molecule = "COc1ccc2c(c1)OCC1=C2Oc2ccccc2C1"
result = "> 100 µM"

[[record]]
molecule = "NC(N)=NS(=O)(=O)c1ccc(NC(=O)c2cccn3c(=O)c4ccccc4nc23)cc1"
result = "> 100 µM"

[[record]]
molecule = "COc1ccccc1CN=C1NC(=O)/C(=C/c2ccc3ncccc3c2)S1"
result = "> 25 µM"

[[record]]
molecule = "O=c1ncc(I)c[nH]1"
result = "> 100 µM"

[[record]]
molecule = "COc1ccc(/C=C(/C(=O)N2CCN(c3ccc(C)cc3)CC2)c2cc(OC)c(OC)c(OC)c2)cc1N"
result = "> 100 µM"

[[record]]
molecule = "C/C(=N\\NC(=O)C[n+]1ccccc1)c1sc(-c2nc(C)c(/C(C)=N/NC(=O)C[n+]3ccccc3)s2)nc1C"
result = "> 100 µM"

